Kindly supply the reported COX2 2 minutes pge2/pge2d4 area ratio Avg. LLE values for the records listed here.
experimental_target: human recombinant COX2 (hCOX2)
assay_name: LCMS-based COX2 enzymatic inhibition assay (PGE2 quantification)
Type: biochemical
Parameters: COX2 2 minutes pge2/pge2d4 area ratio Avg; other: 2 minutes; readout pge2/pge2d4 area ratio; average; COX2 2 minutes pge2/pge2d4 area ratio Avg; LLE; average LLE; COX2 2 minutes pge2 area (counts) Avg; readout pge2 area (counts); other: 2 min; "ovine COX2 (oCOX2), human recombinant COX2 (hCOX2)"
condition_context: 2 minutes; readout pge2/pge2d4 area ratio; average LLE
Lab note: jot the number down without any unit.

Lab note: CS(=O)(=O)c1ccc(-c2nc(NCc3cccs3)cnc2C(N)=O)cc1 gave COX2 2 minutes pge2/pge2d4 area ratio Avg. LLE of 4.28

Lab note: CS(=O)(=O)c1ccc(-c2nc(NCc3cccs3)cc3ccoc23)cc1 gave COX2 2 minutes pge2/pge2d4 area ratio Avg. LLE of 3.981

Lab note: CS(=O)(=O)c1ccc(-c2cccc(OCc3ccoc3)n2)cc1 gave COX2 2 minutes pge2/pge2d4 area ratio Avg. LLE of 4.9079

Lab note: Cc1ncc(-c2ccc(S(C)(=O)=O)cc2)nc1NCc1cccs1 gave COX2 2 minutes pge2/pge2d4 area ratio Avg. LLE of 4.321

Lab note: COc1ncc(NCc2ccon2)nc1-c1ccc(S(C)(=O)=O)cc1 gave COX2 2 minutes pge2/pge2d4 area ratio Avg. LLE of 6.031

Lab note: CS(=O)(=O)c1ccc(-c2nc(NCc3cccs3)cnc2N)cc1 gave COX2 2 minutes pge2/pge2d4 area ratio Avg. LLE of 5.442

Lab note: CS(=O)(=O)c1ccc(-c2cncc(NCc3ccccc3)n2)cc1 gave COX2 2 minutes pge2/pge2d4 area ratio Avg. LLE of 5.017

Lab note: CS(=O)(=O)c1ccc(-c2cncc(SCc3cnco3)n2)cc1 gave COX2 2 minutes pge2/pge2d4 area ratio Avg. LLE of 3.47

Lab note: CS(=O)(=O)c1ccc(-c2cccc(NCc3cocn3)n2)cc1 gave COX2 2 minutes pge2/pge2d4 area ratio Avg. LLE of 3.075

Lab note: CS(=O)(=O)c1ccc(-c2cccc([C@H](O)Cc3cccs3)n2)cc1 gave COX2 2 minutes pge2/pge2d4 area ratio Avg. LLE of 2.424

Lab note: CS(=O)(=O)c1ccc(-c2cccc(OCc3ccsc3)n2)cc1 gave COX2 2 minutes pge2/pge2d4 area ratio Avg. LLE of 4.3

Lab note: COc1ncc(NCc2ncco2)nc1-c1ccc(S(C)(=O)=O)cc1 gave COX2 2 minutes pge2/pge2d4 area ratio Avg. LLE of 4.092

Lab note: CS(=O)(=O)c1ccc(-c2cncc(NCc3cccs3)n2)cc1 gave COX2 2 minutes pge2/pge2d4 area ratio Avg. LLE of 5.067

Lab note: CS(=O)(=O)c1ccc(-c2cnc3ccn(Cc4cccs4)c3c2)cc1 gave COX2 2 minutes pge2/pge2d4 area ratio Avg. LLE of 2.294

Lab note: CS(=O)(=O)c1ccc(-c2cncc(NCc3cccs3)c2)cc1 gave COX2 2 minutes pge2/pge2d4 area ratio Avg. LLE of 4.192

Lab note: CN(Cc1ccco1)c1cccc(-c2ccc(S(C)(=O)=O)cc2)n1 gave COX2 2 minutes pge2/pge2d4 area ratio Avg. LLE of 2.819

Lab note: CS(=O)(=O)c1ccc(-c2cnc3cnn(Cc4cccs4)c3n2)cc1 gave COX2 2 minutes pge2/pge2d4 area ratio Avg. LLE of 4.786

Lab note: CS(=O)(=O)c1ccc(-c2cnc3ncn(Cc4cccs4)c3n2)cc1 gave COX2 2 minutes pge2/pge2d4 area ratio Avg. LLE of 2.8514

Lab note: CS(=O)(=O)c1ccc(-c2cncc(NC34CC5CC(CC(C5)C3)C4)n2)cc1 gave COX2 2 minutes pge2/pge2d4 area ratio Avg. LLE of 2.7806

====

experimental_target: human recombinant COX2 (hCOX2)
assay_name: LCMS-based COX2 enzymatic inhibition assay (PGE2 quantification)
Assay type: biochemical
Parameters: COX2 2 minutes pge2/pge2d4 area ratio Avg; other: 2 minutes; readout pge2/pge2d4 area ratio; average; COX2 2 minutes pge2/pge2d4 area ratio Avg; LLE; average LLE; COX2 2 minutes pge2 area (counts) Avg; readout pge2 area (counts); other: 2 min; "ovine COX2 (oCOX2), human recombinant COX2 (hCOX2)"
condition_context: 2 minutes; readout pge2 area (counts); average; read-out: COX2 2 minutes pge2 area (counts) Avg. IC50
measurement_kind: pIC50
Quick note: pIC50 values are minus log10 of concentrations in mol/L.

Lab note: CS(=O)(=O)c1ccc(-c2cccc(NCc3ccc(F)o3)n2)cc1 gave pIC50 of 7.97

Lab note: Cn1cccc1CNc1cccc(-c2ccc(S(C)(=O)=O)cc2)n1 gave pIC50 of 7.27

Lab note: C[C@H](Nc1cccc(-c2ccc(S(C)(=O)=O)cc2)n1)c1ccoc1 (single isomer, unassigned) gave pIC50 of 5.36

Lab note: Cn1nccc1CNc1cccc(-c2ccc(S(C)(=O)=O)cc2)n1 gave pIC50 of 6.08

Lab note: CS(=O)(=O)c1ccc(-c2cncc(NCc3ccns3)n2)cc1 gave pIC50 of 6.68

Lab note: Cc1ncc(NCc2cccs2)nc1-c1ccc(S(C)(=O)=O)cc1 gave pIC50 of 7.13

Lab note: CS(=O)(=O)c1ccc(-c2cncc(NCc3ccsc3)n2)cc1 gave pIC50 of 7.13

Lab note: CS(=O)(=O)c1ccc(-c2cnc3ccn(Cc4cccs4)c3n2)cc1 gave pIC50 of 7.32

Lab note: CS(=O)(=O)c1ccc(-c2cccc(/C=C\c3ccoc3)n2)cc1 gave pIC50 of 7.76

====

experimental_target: ovine COX-1 (oCOX-1) (Ovis aries, UniProt P05979)
Construct: purchased Cayman Chemicals (Ann Arbor, Mich.)
Sequence (P05979 25-600): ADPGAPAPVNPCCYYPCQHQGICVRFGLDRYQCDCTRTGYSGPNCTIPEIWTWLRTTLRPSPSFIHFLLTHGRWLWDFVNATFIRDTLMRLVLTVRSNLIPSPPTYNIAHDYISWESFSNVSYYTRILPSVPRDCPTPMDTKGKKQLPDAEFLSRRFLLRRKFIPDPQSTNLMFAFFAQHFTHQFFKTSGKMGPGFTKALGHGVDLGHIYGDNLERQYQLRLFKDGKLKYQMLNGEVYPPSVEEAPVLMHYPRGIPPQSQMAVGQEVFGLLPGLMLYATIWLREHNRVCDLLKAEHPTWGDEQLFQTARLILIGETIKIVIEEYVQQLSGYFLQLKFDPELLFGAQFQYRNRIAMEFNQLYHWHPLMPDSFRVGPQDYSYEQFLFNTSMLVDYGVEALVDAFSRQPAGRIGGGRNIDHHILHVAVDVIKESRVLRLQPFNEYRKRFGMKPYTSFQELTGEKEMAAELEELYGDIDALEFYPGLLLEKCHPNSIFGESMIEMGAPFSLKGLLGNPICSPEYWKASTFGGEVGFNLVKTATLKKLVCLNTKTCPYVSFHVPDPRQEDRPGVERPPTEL
assay_name: LCMS-based COX-1 enzymatic inhibition assay (PGE2 quantification)
Type: biochemical
condition_context: 10 minutes; pge2/pge2d4 area ratio; head of this section not shown, inferred
Kindly supply the reported COX1 10 minutes pge2/pge2d4 area ratio Avg. LLE values for the records listed here.
Lab note: jot the number down without any unit.

Lab note: CS(=O)(=O)c1ccc(-c2cncc(NCc3ccc(F)cc3)n2)cc1 [Compound 96] gave COX1 10 minutes pge2/pge2d4 area ratio Avg. LLE of 2.186

Lab note: COc1ncc(NCc2cccs2)nc1-c1ccc(S(C)(=O)=O)nc1 [Compound 60] gave COX1 10 minutes pge2/pge2d4 area ratio Avg. LLE of 2.694

Lab note: CS(=O)(=O)c1ccc(-c2cccc(NCc3cncs3)n2)cc1 [Compound 99] gave COX1 10 minutes pge2/pge2d4 area ratio Avg. LLE of 1.498

Lab note: CS(=O)(=O)c1ccc(-c2ncc3ccn(Cc4cccs4)c3n2)cc1 [Compound 71] gave COX1 10 minutes pge2/pge2d4 area ratio Avg. LLE of 0.04679

Lab note: Cc1ccoc1CNc1cccc(-c2ccc(S(C)(=O)=O)cc2)n1 [Compound 91] gave COX1 10 minutes pge2/pge2d4 area ratio Avg. LLE of 1.267

Lab note: CS(=O)(=O)c1ccc(-c2cnc3cnn(Cc4cccs4)c3n2)cc1 [Compound 94] gave COX1 10 minutes pge2/pge2d4 area ratio Avg. LLE of 2.552

Lab note: CS(=O)(=O)c1ccc(-n2ccc3ccc(NCc4ccoc4)nc32)cc1 [Compound 83] gave COX1 10 minutes pge2/pge2d4 area ratio Avg. LLE of 0.284

Lab note: COc1ccc(NCc2ccoc2)nc1-c1ccc(S(C)(=O)=O)cc1 [Compound 66] gave COX1 10 minutes pge2/pge2d4 area ratio Avg. LLE of 1.364

Lab note: CS(=O)(=O)c1ccc(-n2ccc3cnc(NCc4cccs4)nc32)cc1 [Compound 80] gave COX1 10 minutes pge2/pge2d4 area ratio Avg. LLE of 0.4422

Lab note: CS(=O)(=O)c1ccc(-c2cncc(/C=C\c3cccs3)n2)cc1 [Compound 65] gave COX1 10 minutes pge2/pge2d4 area ratio Avg. LLE of 1.544

Lab note: COc1ncc(-c2ccc(S(N)(=O)=O)cc2)nc1NCc1cccs1 [Compound 64] gave COX1 10 minutes pge2/pge2d4 area ratio Avg. LLE of 3.4205

Lab note: CS(=O)(=O)c1ccc(-n2ccc3ccc(Nc4ccccc4)nc32)cc1 [Compound 72] gave COX1 10 minutes pge2/pge2d4 area ratio Avg. LLE of 0.2541

Lab note: CS(=O)(=O)c1ccc(-c2cncc(OCc3ccoc3)n2)cc1 [Compound 58] gave COX1 10 minutes pge2/pge2d4 area ratio Avg. LLE of 2.5036

Lab note: CS(=O)(=O)c1ccc(-c2cnc3ccn(Cc4ccco4)c3n2)cc1 [Compound 82] gave COX1 10 minutes pge2/pge2d4 area ratio Avg. LLE of 1.865

Lab note: COc1ccc(NCc2cccs2)nc1-c1ccc(S(C)(=O)=O)nc1 [Compound 88] gave COX1 10 minutes pge2/pge2d4 area ratio Avg. LLE of 2.306

Lab note: CS(=O)(=O)c1ccc(-c2cnc3ccn(Cc4cccs4)c3n2)cc1 [Compound 74] gave COX1 10 minutes pge2/pge2d4 area ratio Avg. LLE of 3.046

Lab note: CS(=O)(=O)c1ccc(-c2ccc3cnn(Cc4cccs4)c3n2)cc1 [Compound 63] gave COX1 10 minutes pge2/pge2d4 area ratio Avg. LLE of 2.0906
